The entries below come with measured IC50 values attached.
# system_name: Von Hippel-Lindau disease tumor suppressor/Elongin B/Elongin C (Homo sapiens, UniProt P40337)
# Sequence (P40337 whole entry, looked up): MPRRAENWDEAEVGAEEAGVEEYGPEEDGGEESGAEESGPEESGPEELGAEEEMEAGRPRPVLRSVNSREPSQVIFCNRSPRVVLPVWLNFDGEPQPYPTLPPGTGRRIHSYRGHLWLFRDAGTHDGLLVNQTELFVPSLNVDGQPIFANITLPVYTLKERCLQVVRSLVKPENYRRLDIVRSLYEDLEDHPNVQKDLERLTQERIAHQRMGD
# test: Inhibition of VHL/Elongin B/Elogin C (unknown origin) using FAM-DEALA-Hyp-YIPD as substrate by fluorescence polarization assay
# Type: protein-complex assay
readout_type: IC50 (µM)

* O=C(NCc1ccc(Cl)cc1)[C@@H]1C[C@@H](O)CN1C(=O)c1ccccc1Cl | 52
* Cc1cc(CC(=O)N2C[C@H](O)C[C@H]2C(=O)NCc2ccc(-c3ocnc3C)cc2)on1 | 12.7

----------
# system_name: von Hippel-Lindau disease tumor suppressor (Homo sapiens)
# Sequence (P40337 whole entry): as the sequence (P40337 whole entry, looked up) above
# test: Binding affinity to VHL (unknown origin) assessed as dissociation constant by fluorescence polarization assay
Here, each record is paired with measured Kd data.
readout_type: Kd (nM)

• Cc1cc(-c2scnc2C)ccc1CNC(=O)[C@@H]1C[C@@H](O)CN1C(=O)[C@H](NC(=O)C1(C#N)CC1)C(C)(C)C = 149
• Cc1cc(-c2scnc2C)ccc1[C@H](C)NC(=O)[C@@H]1C[C@@H](O)CN1C(=O)[C@H](NC(=O)C1(F)CC1)C(C)(C)C = 37
• Cc1ncsc1-c1ccc([C@H](C)NC(=O)[C@@H]2C[C@@H](O)CN2C(=O)[C@H](NC(=O)C2(F)CC2)C(C)(C)C)cc1F = 73
